biological target: UniProt:P34998; experiment: Displacement of [125I]CRF from human CRF1 receptor expressed in CHO-K1 cells after 2 hrs by gamma counter; format: cell-based
Sequence (P34998 whole entry): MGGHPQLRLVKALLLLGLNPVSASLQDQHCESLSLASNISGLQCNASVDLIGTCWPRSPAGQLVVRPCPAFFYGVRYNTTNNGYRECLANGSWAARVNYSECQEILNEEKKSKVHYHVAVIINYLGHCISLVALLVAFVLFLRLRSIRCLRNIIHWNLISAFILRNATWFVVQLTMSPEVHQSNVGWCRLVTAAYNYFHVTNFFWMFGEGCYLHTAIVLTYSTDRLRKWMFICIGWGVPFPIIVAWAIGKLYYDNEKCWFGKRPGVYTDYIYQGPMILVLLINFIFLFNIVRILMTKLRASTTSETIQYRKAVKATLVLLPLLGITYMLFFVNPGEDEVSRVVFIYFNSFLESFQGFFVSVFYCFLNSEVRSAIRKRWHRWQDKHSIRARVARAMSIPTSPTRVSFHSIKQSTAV
measure name: IC50 (nM)

Study these solved cases before continuing.
CCC(CC)c1cc(C)n2nc(-c3ccc(OC)cc3C)n(CC3CC3)c(=O)c12    3.3
CCC(C)c1cc(C)n2nc(-c3ccc(OC)cc3Cl)n(C)c(=O)c12 (stereo not given)    4.9
CCC(CC)c1cc(C)n2nc(-c3ccc(OC)cc3C)n(CC(C)C)c(=O)c12    111

P: CCC(CC)c1cc(C)n2nc(-c3cc(C)c(C)cc3C)c(C)cc12
Q: CCC(CC)c1nc(C)c2nc(-c3ccc(OC)cc3C)c(C)cn12
Input pair: P , Q . Output: entry with lower IC50. Response format: the label of the selected entry.
P

1: CCC(CC)c1cc(C)n2nc(-c3c(C)cc(OC)cc3C)n(C)c(=O)c12
2: CCC(CC)c1cc(C)n2nc(-c3ccc(OC(F)F)nc3C)n(C)c(=O)c12
3: CCc1cc(OC)c(OC)cc1-c1nn2c(C)cc(C(CC)CC)c2cc1C
4: CCC(CC)c1cc(C)n2nc(-c3ccc(OC)cc3C)n(C(C)C)c(=O)c12
Parameters: sort_field (IC50), sort_dir (desc). Put the labels in the requested order and write them down.
4, 3, 2, 1
